Tested on: TK-10 renal
MEASUREMENT NOTES: NCI tumour cell line growth inhibition, 48 h
Attribute: TGI

The following compounds have reported results that may help.
INSERT INTO measurements (compound, target_desc, reported) VALUES
  ('C/C(=N\O)c1ccc2ccc3ccccc3c2c1', 'TK-10 renal', '> 100 µM'),
  ('c1ccc(-c2oc(-c3ccccc3)c(CN3CCCCC3)c2CN2CCCCC2)cc1', 'TK-10 renal', '19 µM'),
  ('COc1cc2oc(-c3cccc(C(=O)Nc4ccc(Cl)cc4)c3)cc(=O)c2c(OC)c1OC', 'TK-10 renal', '> 100 µM'),
  ('O=C(NCCN1CCCCC1)c1ccc(Br)cc1', 'TK-10 renal', '> 100 µM'),
  ('NS(=O)(=O)c1ccc(Nc2cc(-c3ccc(O)c(F)c3)[nH]n2)cc1', 'TK-10 renal', '> 25 µM'),
  ('COc1cc([N+](=O)[O-])c(OC)cc1-c1nc2sc(C)c(C)n2c1/C(N)=N/C(=N)N', 'TK-10 renal', '> 100 µM');

## Input Identify the measured TGI of `Cc1ccc(CNc2ccc(Br)cc2)cc1` for TK-10 renal.
## Output > 100 µM

## Input Identify the measured TGI of `NC(N)=N/N=C/c1c(-c2ccsc2)nc2n1CCS2` for TK-10 renal.
## Output 61.1 µM

## Input Identify the measured TGI of `O=c1[nH]/c(=C/c2ccc3c(c2)OCO3)c(=O)[nH]/c1=C/c1ccc2c(c1)OCO2` for TK-10 renal.
## Output > 10 µM

---

System: A498 renal
MEASUREMENT NOTES: NCI tumour cell line growth inhibition, 48 h
ENDPOINT NAME: TGI

## Input Reported TGI, compound `O=C1C(c2ccccc2)=C(c2ccccc2)C(c2ccc(Cc3ccc(C4=C(c5ccccc5)C(=O)C(c5ccccc5)=C4c4ccccc4)cc3)cc2)=C1c1ccccc1` : ____
## Output > 100 µM

## Input Reported TGI, compound `C[N+](C)(CCCCCC[N+](C)(C)CCCN1C(=O)c2cccc3cccc(c23)C1=O)CCCN1C(=O)c2cccc3cccc(c23)C1=O` : ____
## Output > 100 µM

## Input Reported TGI, compound `NC(=O)c1ccc2c(c1)-c1nc-2nc2[n-]c(nc3nc(nc4[n-]c(n1)c1ccc(C(N)=O)cc41)-c1ccc(C(N)=O)cc1-3)c1ccc(C(N)=O)cc21.[Co+2]` : ____
## Output > 50 µM

---

System: LOX IMVI melanoma
MEASUREMENT NOTES: NCI tumour cell line growth inhibition, 48 h
ENDPOINT NAME: TGI

The following compounds have reported results that may help.
INSERT INTO assay_data (compound, target_desc, endpoint_name, reported) VALUES
  ('O=[N+]([O-])c1ccc(SN=S=NSc2cccc(SN=S=NSc3ccc([N+](=O)[O-])cc3)c2)cc1', 'LOX IMVI melanoma', 'TGI', '35.5 µM'),
  ('FC(F)(F)c1ccccc1C1SCC2=Nc3ccccc3CN21 (configuration not stated)', 'LOX IMVI melanoma', 'TGI', '28.4 µM'),
  ('CCN(CC)c1ccc(/C=C/C(=O)c2ccc(Nc3nc(Nc4ccccc4)nc(Nc4ccccc4)n3)cc2)cc1', 'LOX IMVI melanoma', 'TGI', '> 100 µM');

## Input Identify the measured TGI of `CN=C(N)c1ccc(N=C(N)c2ccc(-c3ccc(C(N)=Nc4ccc(C(N)=NC)cc4)cc3)cc2)cc1` for LOX IMVI melanoma.
## Output > 100 µM

## Input Identify the measured TGI of `CCOc1ccccc1N=Nc1ccc2oc(=O)c(C(C)=O)cc2c1` for LOX IMVI melanoma.
## Output > 100 µM

## Input Identify the measured TGI of `Cc1ccc(NC(=O)CCCC(=O)CC(=O)c2ccc(Br)cc2)cc1` for LOX IMVI melanoma.
## Output > 100 µM

## Input Identify the measured TGI of `CCOC(=O)c1c[nH]c(C(=O)OCC)c1-c1cccn1-c1ccccc1` for LOX IMVI melanoma.
## Output 32.4 µM

## Input Identify the measured TGI of `Cc1cc(=O)oc2ccc(OC/C=C3\CCC(=O)O3)cc12` for LOX IMVI melanoma.
## Output 17.2 µM

## Input Identify the measured TGI of S=c1sc2c(s1)SC(c1ccccc1)CS2 (configuration not stated) for LOX IMVI melanoma.
## Output > 100 µM

## Input Identify the measured TGI of `COc1ccc2nc3cc(Cl)ccc3c(NCCCNCCO)c2c1` for LOX IMVI melanoma.
## Output 1.12 µM

## Input Identify the measured TGI of `C#CC[C@@H]1C(=O)N(Cc2ccc(OC)cc2)[C@@H](C(C)C)C(=O)N1Cc1ccc(OC)cc1` for LOX IMVI melanoma.
## Output > 100 µM

## Input Identify the measured TGI of `O=Cc1c[nH]c2c(=O)[nH]cnc12` for LOX IMVI melanoma.
## Output > 100 µM

## Input Identify the measured TGI of `C[C@]12C=CC(=O)C=C1CC[C@@H]1[C@@H]2CC[C@@]2(C)[C@H]1CC[C@]2(O)C(N)=O` for LOX IMVI melanoma.
## Output > 100 µM

---

Attribute: GI50
System: CCRF-CEM leukemia
MEASUREMENT NOTES: NCI tumour cell line growth inhibition, 48 h

The following compounds have reported results that may help.
INSERT INTO measurements (compound, target_desc, reported) VALUES
  ('CCOC(=O)[C@@H](C)C[C@H](Cc1ccccc1)NC(=O)c1csc([C@@H](C[C@H](C(C)C)N(C)C(=O)[C@@H](NC(=O)[C@H]2CCCCN2C)C(C)(C)CC)OC(C)=O)n1', 'CCRF-CEM leukemia', '2.46 nM'),
  ('O=C(CS(=O)(=O)c1nc2ccccc2nc1-c1ccccc1)Nc1ccc(F)cc1', 'CCRF-CEM leukemia', '3150 nM'),
  ('COC(=O)NC1C(C)OC(OC2C/C=C(/C)C3C=CC4C(OC5CC(OC6CCC(OC7CC(O)C(OC8CCC(O)C(C)O8)C(C)O7)C(C)O6)C(OC(C)=O)C(C)O5)C(C)CC(C)C4C3(C)/C(O)=C3/C(=O)OC4(CC(C=O)=CC(O)C4/C=C\2C)C3=O)CC1(C)[N+](=O)[O-] (stereo not drawn)', 'CCRF-CEM leukemia', '68.7 nM'),
  ('COc1cc[c]([Sn]([c]2ccc(OC)cc2)([c]2ccc(OC)cc2)[c]2ccc(OC)cc2)cc1', 'CCRF-CEM leukemia', '20700 nM'),
  ('COC1(CC[C@@H](C)COC2OC(CO)C(O)C(O)C2O)O[C@H]2C[C@H]3[C@@H]4CC=C5C[C@@H](OC6OC(CO)C(OC7OC(C)C(O)C(O)C7O)C(O)C6OC6OC(C)C(O)C(O)C6O)CC[C@]5(C)[C@H]4CC[C@]3(C)[C@H]2[C@@H]1C (stereo partly drawn)', 'CCRF-CEM leukemia', '7600 nM'),
  ('CCOC(=O)CSc1cc(Cl)c(C)cc1S(=O)(=O)/N=C(/N=C/c1ccc([N+](=O)[O-])s1)NNC', 'CCRF-CEM leukemia', '30300 nM'),
  ('NC1NC=NC2C1N=CN2C1OC(CO)C2[O][Sn][O]C21 (stereo not drawn)', 'CCRF-CEM leukemia', '> 100000 nM'),
  ('C=C1C[C@H]2C=Nc3cc(OCCCOc4cc5c(cc4OC)C(=O)N4CC(=C)C[C@H]4C=N5)c(OC)cc3C(=O)N2C1', 'CCRF-CEM leukemia', '0.19 nM'),
  ('CCN1CCN(c2nc(C)cc(N(CCCNc3ccnc4cc(Cl)ccc34)Cc3ccc4c(c3)OCO4)n2)CC1', 'CCRF-CEM leukemia', '1810 nM'),
  ('N#CCn1c(=O)c(Oc2ccc(F)cc2F)cc2cnc(NC3CCOCC3)nc21', 'CCRF-CEM leukemia', '> 25000 nM');

## Input Reported GI50, compound `NS(=O)(=O)c1ccc(Nc2cc(-c3ccc(O)c(F)c3)[nH]n2)cc1` : ____
## Output 13500 nM

## Input Reported GI50, compound `O=C1NC(=S)S/C1=C\c1cn(-c2ccccc2)nc1-c1ccccc1` : ____
## Output 2500 nM

## Input Reported GI50, compound `Oc1ccc(Cl)cc1C(c1cc(Cl)ccc1O)C(Cl)(Cl)Cl` : ____
## Output 3200 nM

## Input Reported GI50, compound `O=C(Nc1ccc(Oc2ccc3nc(NC(=O)c4ccco4)[nH]c3c2)cc1)Nc1cc(C(F)(F)F)ccc1F` : ____
## Output 1850 nM

## Input Reported GI50, compound `c1cc(N[C@@H]2CCNC2)nc(-c2cnc3ccc(-c4cn[nH]c4)cn23)c1` : ____
## Output 3260 nM

## Input Reported GI50, compound `CC(=O)Nc1ccc(C(=O)CCl)cc1` : ____
## Output 2410 nM

## Input Reported GI50, compound `CC(C)(C)c1cc(C(=O)Nc2ccccc2C(=O)NCCN)cc(C(C)(C)C)c1` : ____
## Output 2500 nM

## Input Reported GI50, compound COc1ccc(C(O)c2cc3c(N)c(C(=O)Nc4ccc(Cl)cc4)sc3nc2C)cc1 (stereo not drawn) : ____
## Output 2470 nM

Origin of the recorded values: PubChem BioAssay (NCI)
